# TEST SYSTEM: UniProt P10275
# Sequence (P10275 whole entry): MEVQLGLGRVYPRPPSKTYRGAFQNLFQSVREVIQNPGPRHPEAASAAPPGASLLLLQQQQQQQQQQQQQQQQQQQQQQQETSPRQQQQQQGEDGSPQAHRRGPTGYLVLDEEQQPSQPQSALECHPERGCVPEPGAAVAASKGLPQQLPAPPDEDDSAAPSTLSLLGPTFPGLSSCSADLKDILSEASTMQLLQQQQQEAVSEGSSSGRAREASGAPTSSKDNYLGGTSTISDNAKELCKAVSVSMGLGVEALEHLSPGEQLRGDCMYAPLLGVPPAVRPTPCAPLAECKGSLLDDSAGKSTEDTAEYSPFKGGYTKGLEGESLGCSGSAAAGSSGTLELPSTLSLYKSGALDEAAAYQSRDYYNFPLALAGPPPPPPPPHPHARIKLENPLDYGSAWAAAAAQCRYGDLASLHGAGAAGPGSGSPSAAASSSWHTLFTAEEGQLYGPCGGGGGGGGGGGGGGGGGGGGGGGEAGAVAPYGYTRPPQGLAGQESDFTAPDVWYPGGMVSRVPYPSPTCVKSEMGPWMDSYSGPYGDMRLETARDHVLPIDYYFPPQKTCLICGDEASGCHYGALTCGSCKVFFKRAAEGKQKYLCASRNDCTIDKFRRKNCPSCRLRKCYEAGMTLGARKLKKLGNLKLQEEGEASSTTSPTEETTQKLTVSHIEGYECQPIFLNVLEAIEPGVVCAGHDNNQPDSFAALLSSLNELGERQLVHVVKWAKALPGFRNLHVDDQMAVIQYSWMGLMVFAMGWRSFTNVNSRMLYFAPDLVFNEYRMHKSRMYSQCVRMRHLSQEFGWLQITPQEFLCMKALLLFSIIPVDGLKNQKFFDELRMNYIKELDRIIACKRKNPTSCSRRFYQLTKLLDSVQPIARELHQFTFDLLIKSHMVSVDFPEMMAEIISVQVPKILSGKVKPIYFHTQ
# PROCEDURE TEXT: Anti-androgenic activity at androgen receptor (unknown origin) expressed in HEK293 cells by BRET assay
# Type: cell-based
EXPERIMENTAL ENDPOINT: pIC50
// returns pIC50 (minus log10 of molar concentration), number only

Past entries and their recorded results:
INPUT SMILES: CC1(C)C(=O)N(c2ccc(C#N)c(C(F)(F)F)c2)C(=S)N1CCCCC(=O)NO
pIC50: 5.93
//
INPUT SMILES: CC1(C)C(=O)N(c2ccc(C#N)c(C(F)(F)F)c2)C(=S)N1Cc1ccc(C(=O)Nc2ccccc2N)cc1
pIC50: 6.55
//
INPUT SMILES: CC1(C)C(=O)N(c2ccc(C#N)c(C(F)(F)F)c2)C(=S)N1c1ccc(C(=O)Nc2ccccc2N)c(F)c1
pIC50: 5.77
//
INPUT SMILES: CC1(C)C(=O)N(c2ccc(C#N)c(C(F)(F)F)c2)C(=S)N1C12CC(CC(=O)Nc3ccccc3N)(C1)C2
pIC50: 6.72
//
INPUT SMILES: CC1(C)C(=O)N(c2ccc(C#N)c(C(F)(F)F)c2)C(=S)N1CCCCCCC(=O)NO
pIC50: 6.41
//
INPUT SMILES: CC1(C)C(=O)N(c2ccc(C#N)c(C(F)(F)F)c2)C(=S)N1c1ccc(C(=O)Nc2ccccc2N)nc1
pIC50: 6.12

Form field, pIC50 with UniProt P10275, item CC1(C)C(=O)N(c2ccc(C#N)c(C(F)(F)F)c2)C(=S)N1CCCC(=O)NO : 6.41

Noted pIC50 for CC1(C)C(=O)N(c2ccc(C#N)c(C(F)(F)F)c2)C(=S)N1c1ccc(C(=O)Nc2ccccc2N)cc1 , tested on UniProt P10275: 6.01

Recorded pIC50 for CC1(C)C(=O)N(c2ccc(C#N)c(C(F)(F)F)c2)C(=S)N1CCCCCC(=O)NO on UniProt P10275 was 5.84

Measured on UniProt P10275, CC1(C)C(=O)N(c2ccc(C#N)c(C(F)(F)F)c2)C(=S)N1c1ccc(C(=O)Nc2ccccc2N)cn1 has a documented pIC50 of 5.63
